- Assayed Target: human thrombin (Homo sapiens)
- Measurement Notes: inhibition of the amidolytic activity of thrombin (chromogenic substrate S-2238)
- Format: biochemical
- Settings: human thrombin 0.5 nM, substrate S-2238, pH 7.8, room temperature
Quantity: Ki (µM)

CCOC(=O)CN(C(=O)[C@H](CC(=O)NCC1CN(C(=N)N)CCO1)NC(=O)OCc1ccccc1)C1CC1 (stereo partly drawn) ... 8.9

a. CCCCN(CCC(=O)OCC)C(=O)[C@H](CC(=O)NC[C@@H]1CCCN(C(=N)N)C1)NC(=O)OCc1ccccc1
b. CCOC(=O)CN(C(=O)[C@H](CC(=O)NC[C@@H]1CCCN(C(=N)N)C1)NC(=O)OCc1ccccc1)C1CC1
c. CCCCCC(=O)N[C@@H](CC(=O)NC[C@@H]1CCCN(C(=N)N)C1)C(=O)N(CC(=O)O)C1CC1 [Example 14b]
d. CCCCC(=O)N[C@@H](CC(=O)NC[C@@H]1CCCN(C(=N)N)C1)C(=O)N(CC(=O)OCC)C1CC1 [Example 13a]
e. N=C(N)N1CCC[C@@H](CNC(=O)C[C@H](NC(=O)c2ccccc2)C(=O)N(CC(=O)O)C2CC2)C1 [Example 14d]
Ascending by Ki, please. Labels, ranked as asked.
c, a, e, b, d

1. CCCCN(CC(=O)OCC)C(=O)[C@H](CC(=O)NCC1CN(C(=N)N)CCO1)NC(=O)OCc1ccccc1 (stereo partly drawn)
2. N=C(N)N1CCC[C@@H](CNC(=O)C[C@H](NC(=O)COc2ccccc2)C(=O)N(CCNC(=O)c2cnccn2)C2CC2)C1 [Example 21d]
3. CCOC(=O)CN(C(=O)[C@H](CC(=O)NC[C@@H]1CCCN(C(=N)N)C1)NC(=O)c1ccccc1)C1CC1 [Example 13d]
Ascending by Ki, please. Labels, ranked as asked.
2, 1, 3
(2: 0.0013 µM, 1: 0.03 µM, 3: 4.7 µM)

* * *

- Assayed Target: trypsin
- Measurement Notes: inhibition of the amidolytic activity of trypsin (chromogenic substrate S-2251)
- Format: biochemical
- Settings: substrate S-2251, 200 and 750 μM, otherwise analogous to thrombin
Quantity: Ki (µM)

CCOC(=O)CN(C(=O)[C@H](CC(=O)NC[C@@H]1CCCN(C(=N)N)C1)NC(=O)OCc1ccccc1)C1CC1 ... 70
CCOC(=O)CCN(C(=O)[C@H](CC(=O)NC[C@@H]1CCCN(C(=N)N)C1)NC(=O)OCc1ccccc1)C1CC1 ... 29
N=C(N)N1CCC[C@@H](CNC(=O)C[C@H]2C(=O)N(C3CC3)CC(=O)N2S(=O)(=O)c2ccc3ccccc3c2)C1 ... 13
CCOC(=O)CN(C(=O)[C@H](CC(=O)NCC1CN(C(=N)N)CCO1)NC(=O)OCc1ccccc1)C1CC1 (some centres unmarked) ... 231

A. CCOC(=O)CN(C(=O)[C@H](CC(=O)NC[C@@H]1CCCN(C(=N)N)C1)NC(=O)c1ccccc1)C1CC1 [Example 13d]
B. CCCCN(CCC(=O)OCC)C(=O)[C@H](CC(=O)NCC1CN(C(=N)N)CCO1)NC(=O)OCc1ccccc1 (some centres unmarked)
C. CCCCN(CC(=O)O)C(=O)[C@H](CC(=O)NCC1CN(C(=N)N)CCO1)NC(=O)OCc1ccccc1 (some centres unmarked)
D. CCCCN(CC(=O)OCC)C(=O)[C@H](CC(=O)NCC1CN(C(=N)N)CCO1)NC(=O)OCc1ccccc1 (some centres unmarked)
E. CCOC(=O)CN(C(=O)[C@H](CC(=O)NC[C@@H]1CCCN(C(=N)N)C1)NC(=O)NCc1ccccc1)C1CC1
Ascending by Ki, please. Labels, ranked as asked.
B, A, C, E, D

I. CCCCCC(=O)N[C@@H](CC(=O)NC[C@@H]1CCCN(C(=N)N)C1)C(=O)N(CC(=O)O)C1CC1 [Example 14b]
II. N=C(N)N1CCC[C@@H](CNC(=O)C[C@H](NC(=O)Cc2ccccc2)C(=O)N(CC(=O)O)C2CC2)C1 [Example 14e]
Of the pair I and II , name the member with the lesser recorded Ki. Write down the label attached to your selection.
I
(I: 25 µM, II: 69 µM)

I. CCCCN(CCC(=O)O)C(=O)[C@H](CC(=O)NCC1CN(C(=N)N)CCO1)NC(=O)OCc1ccccc1 (some centres unmarked)
II. N=C(N)N1CCC[C@@H](CNC(=O)C[C@H](NC(=O)NCc2ccccc2)C(=O)N(CC(=O)O)C2CC2)C1
III. N=C(N)N1CCC[C@@H](CNC(=O)C[C@H](NS(=O)(=O)N2CCOCC2)C(=O)N(CCNC(=O)c2cnccn2)C2CC2)C1
Ascending by Ki, please. Labels, ranked as asked.
III, II, I

1. CCOC(=O)CN(C(=O)[C@H](CC(=O)NC[C@@H]1CCCN(C(=N)N)C1)NC(=O)NCc1ccco1)C1CC1
2. CCCCN(CCC(=O)OCC)C(=O)[C@H](CC(=O)NC[C@@H]1CCCN(C(=N)N)C1)NC(=O)OCc1ccccc1
3. CC(=O)N[C@@H](Cc1c[nH]c2ccccc12)C(=O)N[C@@H](CC(=O)NC[C@@H]1CCCN(C(=N)N)C1)C(=O)N(CCNC(=O)c1cnccn1)C1CC1 [Example 21c]
4. CC(C)(C)OC(=O)N[C@@H](CC(=O)NC[C@@H]1CCCN(C(=N)N)C1)C(=O)N(CCNC(=O)c1cnccn1)C1CC1
5. N=C(N)N1CCC[C@@H](CNC(=O)C[C@H](NS(=O)(=O)N2CCOCC2)C(=O)N(CCNC(=O)c2ccc(=O)[nH]n2)C2CC2)C1
Please list the entries, largest Ki first. Labels, ranked as asked.
1, 2, 3, 5, 4
(1: 80 µM, 2: 30 µM, 3: 15 µM, 5: 7.2 µM, 4: 3.1 µM)

1. CCCCC(=O)N[C@@H](CC(=O)NC[C@@H]1CCCN(C(=N)N)C1)C(=O)N(CC(=O)OCC)C1CC1 [Example 13a]
2. COC(=O)CC[C@H](O)C(=O)N[C@@H](CC(=O)NC[C@@H]1CCCN(C(=N)N)C1)C(=O)N(CCNC(=O)c1cnccn1)C1CC1 [Example 21b]
Of the pair 1 and 2 , name the member with the lesser recorded Ki. Write down the label attached to your selection.
2
(2: 14 µM, 1: 70 µM)

I. CCCCN(CCC(=O)O)C(=O)[C@H](CC(=O)NC[C@@H]1CCCN(C(=N)N)C1)NC(=O)OCc1ccccc1
II. CCOC(=O)CCN(C(=O)[C@H](CC(=O)NCC1CN(C(=N)N)CCO1)NC(=O)OCc1ccccc1)C1CC1 (some centres unmarked)
Between these two entries, I and II , state which has the higher Ki. Write down the label attached to your selection.
I
(I: 100 µM, II: 29 µM)

A. CCCCCC(=O)N[C@@H](CC(=O)NC[C@@H]1CCCN(C(=N)N)C1)C(=O)N(CC(=O)OCC)C1CC1 [Example 13b]
B. N=C(N)N1CCC[C@@H](CNC(=O)C[C@H]2C(=O)N(C3CCCC3)CC(=O)N2S(=O)(=O)c2ccc3ccccc3c2)C1
Of the pair A and B , name the member with the lesser recorded Ki. Write down the label attached to your selection.
B
(B: 14 µM, A: 75 µM)

* * *

- Assayed Target: UniProt:P00734
- Measurement Notes: inhibition of the amidolytic activity of thrombin (chromogenic substrate S-2238)
- Format: biochemical
- Settings: human thrombin 0.5 nM, substrate S-2238, pH 7.8, room temperature
Quantity: Ki (µM)

CCOC(=O)CCN(C(=O)[C@H](CC(=O)NCC1CN(C(=N)N)CCO1)NC(=O)OCc1ccccc1)C1CC1 (stereo partly drawn) [Example 5c] ... 0.054

I. N=C(N)N1CCC[C@@H](CNC(=O)C[C@H](NC(=O)c2cc(Cl)ccn2)C(=O)N(CC(=O)O)C2CC2)C1 [Example 14c]
II. CCCCCC(=O)N[C@@H](CC(=O)NC[C@@H]1CCCN(C(=N)N)C1)C(=O)N(CC(=O)OCC)C1CC1 [Example 13b]
Of the pair I and II , name the member with the lesser recorded Ki. Write down the label attached to your selection.
I
(I: 0.057 µM, II: 0.41 µM)
